# Test system: SK-MEL-28 melanoma
# Test: NCI tumour cell line growth inhibition, 48 h; in the data active = GI50 below about 0.43 µM; inactive = the rest
Outcomes you can answer with include only these: active, inactive

Look over these answered cases.
Molecule	Cat
CCCCCCCCCCCCOC1C(C(COC2OC(C(O)CO)C3OC(C)(C)OC23)OC(=O)Nc2ccccc2)OC2OC(C)(C)OC21 (centres undefined)	inactive
COc1ccc([C@@H]2[C@@H](Oc3ccccc3)C(=O)N2c2cc(OC)c(OC)c(OC)c2)cc1F	active
CCN1CCN(CC(=O)Nc2nc3ccc(NCc4ccc(Br)cc4)cc3s2)CC1	inactive

Kindly consider the entry below.
# input Which outcome did this test record for the molecule "c1cc(OCCCCCOc2cccc(-c3nc4ccccc4[nH]3)c2)cc(-c2nc3ccccc3[nH]2)c1" ?
# output inactive

Reference for the values: PubChem BioAssay (NCI)
